- Test system: E. coli ATCC 25922
- TEST_DETAILS: Cell membrane permeabilization, propidium iodide flow cytometry
- Assay type: cell-based, Escherichia coli
- PARTICULARS: compound at its MIC, 40 min, 5 × 10^6 CFU/mL, supplemented M9; mean of n = 3
MEASUREMENT_KIND: Membrane permeabilization (% PI +cells)

The following molecules have reported results that may help.
INSERT INTO measurements (molecule, target_under_test, result) VALUES
  ('CO[C@H]1/C=C/O[C@@]2(C)Oc3c(C)c(O)c4c(O)c(c(/C=N/N5CCN(C)CC5)c(O)c4c3C2=O)NC(=O)/C(C)=C\C=C\[C@H](C)[C@H](O)[C@@H](C)[C@@H](O)[C@@H](C)[C@H](OC(C)=O)[C@@H]1C [RIF, Rifampicin]', 'E. coli ATCC 25922', '<1%'),
  ('O=C(N[C@H](CO)[C@H](O)c1ccc([N+](=O)[O-])cc1)C(Cl)Cl [CHL, Chloramphenicol]', 'E. coli ATCC 25922', '<1%'),
  ('CCO [Ethanol]', 'E. coli ATCC 25922', '78%');

As a next step, examine the molecule that follows.
Which value of Membrane permeabilization (% PI +cells) has been reported for CCn1cc(C(=O)O)c(=O)c2ccc(C)nc21 [NDX, Nalidixic Acid] in the records?
<1%
